Source: paper PMC9132415

# TARGET_OR_SYSTEM: TBK1 (Homo sapiens, UniProt Q9UHD2)
# Sequence (Q9UHD2 whole entry): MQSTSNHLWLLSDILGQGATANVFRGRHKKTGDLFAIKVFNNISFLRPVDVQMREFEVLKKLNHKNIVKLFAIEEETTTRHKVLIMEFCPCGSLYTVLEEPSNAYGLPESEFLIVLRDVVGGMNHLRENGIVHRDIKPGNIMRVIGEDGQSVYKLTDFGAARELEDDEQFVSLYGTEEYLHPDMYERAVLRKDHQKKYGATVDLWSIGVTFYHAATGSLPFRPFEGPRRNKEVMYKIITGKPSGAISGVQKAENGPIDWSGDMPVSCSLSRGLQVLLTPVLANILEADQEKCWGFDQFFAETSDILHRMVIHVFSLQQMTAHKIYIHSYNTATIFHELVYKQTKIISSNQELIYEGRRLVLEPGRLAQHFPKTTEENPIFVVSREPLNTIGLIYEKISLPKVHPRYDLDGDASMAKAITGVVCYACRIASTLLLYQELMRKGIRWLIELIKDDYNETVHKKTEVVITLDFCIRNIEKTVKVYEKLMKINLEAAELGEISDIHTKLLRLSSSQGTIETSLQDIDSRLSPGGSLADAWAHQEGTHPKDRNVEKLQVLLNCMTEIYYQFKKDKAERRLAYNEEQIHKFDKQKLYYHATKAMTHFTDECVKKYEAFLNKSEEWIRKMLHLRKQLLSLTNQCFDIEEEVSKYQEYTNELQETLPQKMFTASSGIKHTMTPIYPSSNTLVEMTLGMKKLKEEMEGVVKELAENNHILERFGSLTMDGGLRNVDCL
# ASSAY_COMMENT: FRET-based Z'-LYTE TBK1 enzymatic assay
# Type: biochemical
# Set-up: purchased Thermo Scientific A31513
# SETUP_CONDITIONS: compound at 1 μM; 100 µM ATP; read-out: TBK1 inhibition (%) 1 μM
READOUT_LABEL: inhibition at 1 µM (%)
Unit % implied. Number only.

Prompt: Answer with the recorded inhibition at 1 µM of CC(C)n1cnc2ccc(-c3n[nH]c4ncc(-c5ccc(CN6CCN(C)CC6)cc5)cc34)cc21 [Compound 15e] only.
Completion: 104

Prompt: Answer with the recorded inhibition at 1 µM of Cc1nc2c(F)cc(-c3c[nH]c4ncc(-c5ccc(S(N)(=O)=O)cc5)cc34)cc2n1C(C)C [Compound 15ab] only.
Completion: 90.3

Prompt: Answer with the recorded inhibition at 1 µM of CC(C)n1cnc2ccc(-c3n[nH]c4ncc(-c5ccc(S(N)(=O)=O)cc5)cc34)cc21 [Compound 15i] only.
Completion: 105

Prompt: Answer with the recorded inhibition at 1 µM of CC(C)n1cnc2ccc(-c3n[nH]c4ncc(-c5ccc(C(N)=O)cc5)cc34)cc21 [Compound 15h] only.
Completion: 104

Prompt: Answer with the recorded inhibition at 1 µM of Cc1nc2c(F)cc(-c3n[nH]c4ncc(-c5cccc(S(N)(=O)=O)c5)cc34)cc2n1C1CC1 [Compound 15z] only.
Completion: 79.5

Prompt: Answer with the recorded inhibition at 1 µM of COC(=O)c1cccc(-c2cnc3[nH]nc(-c4ccc5ncn(C(C)C)c5c4)c3c2)c1 [Compound 15k] only.
Completion: 82.6

Prompt: Answer with the recorded inhibition at 1 µM of Cc1nc2c(F)cc(-c3n[nH]c4ncc(-c5cccc(S(N)(=O)=O)c5)cc34)cc2n1C(C)C [Compound 15y] only.
Completion: 53.9

====

Could you please report measured inhibition at 10 µM for the items listed next?
# TARGET_OR_SYSTEM: UniProt Q9UHD2
# ASSAY_COMMENT: FRET-based Z'-LYTE TBK1 enzymatic assay
# Type: biochemical
# Set-up: purchased Thermo Scientific A31513
# SETUP_CONDITIONS: read-out: TBK1 inhibition (%) 10 μM, compound at 10 μM; 100 µM ATP
Unit % implied. Number only.

Prompt: Give inhibition at 10 µM for this entry on UniProt Q9UHD2: CN1CCN(Cc2ccc(-c3cnc4[nH]nc(NCCc5ccccc5)c4c3)cc2)CC1 [Compound 12b]
Completion: 3.2

Prompt: Give inhibition at 10 µM for this entry on UniProt Q9UHD2: CN1CCN(Cc2ccc(-c3cnc4[nH]nc(NCCCc5ccccc5)c4c3)cc2)CC1 [Compound 12d]
Completion: -4.7

Prompt: Give inhibition at 10 µM for this entry on UniProt Q9UHD2: NS(=O)(=O)c1ccc(-c2cnc3[nH]nc(-c4cnn(CCN5CCOCC5)c4)c3c2)cc1 [Compound 15n]
Completion: -12.5

====

# TARGET_OR_SYSTEM: TBK1 (Homo sapiens)
# ASSAY_COMMENT: FRET-based Z'-LYTE TBK1 enzymatic assay
# Format: biochemical
# Set-up: purchased Thermo Scientific A31513
# SETUP_CONDITIONS: compound at 10 nM; 100 µM ATP; read-out: TBK1 inhibition (%) 10 nM
Entries get a class label from measured inhibition at 0.01 µM. See ranges: 1 (below 30%), 2 (30% to below 60%), 3 (60% or more)

Prompt: # bin lookup: classify Cc1nc2c(F)cc(-c3n[nH]c4ncc(-c5ccc(S(N)(=O)=O)cc5)cc34)cc2n1C1CC1 [Compound 15v] by its inhibition at 0.01 µM
Completion: 2

Prompt: # bin lookup: classify CC(C)n1cnc2ccc(-c3n[nH]c4ncc(-c5ccc(S(N)(=O)=O)cc5)cc34)cc21 [Compound 15i] by its inhibition at 0.01 µM
Completion: 3

Prompt: # bin lookup: classify Cc1nc2ccc(-c3n[nH]c4ncc(-c5ccc(S(N)(=O)=O)cc5)cc34)cc2n1C(C)C [Compound 15s] by its inhibition at 0.01 µM
Completion: 3

Prompt: # bin lookup: classify Cc1nc2c(F)cc(-c3n[nH]c4ncc(-c5ccc(CN6CCN(C)CC6)cc5)cc34)cc2n1C(C)C [Compound 15x] by its inhibition at 0.01 µM
Completion: 2

Prompt: # bin lookup: classify COC(=O)c1cccc(-c2cnc3[nH]nc(-c4ccc5ncn(C(C)C)c5c4)c3c2)c1 [Compound 15k] by its inhibition at 0.01 µM
Completion: 1

Prompt: # bin lookup: classify CC(=O)Nc1cc(-c2cnc3[nH]nc(-c4ccc5ncn(C(C)C)c5c4)c3c2)ccn1 [Compound 15j] by its inhibition at 0.01 µM
Completion: 2

Prompt: # bin lookup: classify CN1CCN(Cc2ccc(-c3cnc4[nH]nc(-c5ccc6[nH]cnc6c5)c4c3)cc2)CC1 [Compound 15d] by its inhibition at 0.01 µM
Completion: 1

Prompt: # bin lookup: classify Cc1nc2c(F)cc(-c3n[nH]c4ncc(-c5ccc(S(N)(=O)=O)cc5)cc34)cc2n1C(C)C [Compound 15t] by its inhibition at 0.01 µM
Completion: 3

Prompt: # bin lookup: classify Cc1nc2c(F)cc(-c3c[nH]c4ncc(-c5ccc(S(N)(=O)=O)cc5)cc34)cc2n1C(C)C [Compound 15ab] by its inhibition at 0.01 µM
Completion: 3

Prompt: # bin lookup: classify CC(C)n1cnc2ccc(-c3n[nH]c4ncc(-c5ccc(CN6CCN(C)CC6)cc5)cc34)cc21 [Compound 15e] by its inhibition at 0.01 µM
Completion: 1

Prompt: # bin lookup: classify Cc1nc2c(F)cc(-c3n[nH]c4ncc(-c5cccc(S(N)(=O)=O)c5)cc34)cc2n1C(C)C [Compound 15y] by its inhibition at 0.01 µM
Completion: 3

Prompt: # bin lookup: classify Cc1nc2c(F)cc(-c3n[nH]c4ncc(-c5cccc(S(N)(=O)=O)c5)cc34)cc2n1C1CC1 [Compound 15z] by its inhibition at 0.01 µM
Completion: 2

====

# TARGET_OR_SYSTEM: UniProt Q9UHD2
# ASSAY_COMMENT: FRET-based Z'-LYTE TBK1 enzymatic assay
# Format: biochemical
# Design: purchased Thermo Scientific A31513
# SETUP_CONDITIONS: read-out: TBK1 inhibition (%) 10 μM, compound at 10 μM; 100 µM ATP
Could you please report measured inhibition at 10 µM for the items listed next?
Unit % implied. Number only.

Prompt: Answer with the recorded inhibition at 10 µM of CN1CCN(Cc2ccc(-c3cnc4[nH]nc(-c5ccc(N)cc5)c4c3)cc2)CC1 [Compound 15c] only.
Completion: 86.8

Prompt: Answer with the recorded inhibition at 10 µM of CN1CCN(Cc2ccc(-c3cnc4[nH]nc(NCCCN5CCOCC5)c4c3)cc2)CC1 [Compound 12h] only.
Completion: -5.2

Prompt: Answer with the recorded inhibition at 10 µM of CN1CCN(Cc2ccc(-c3cnc4[nH]nc(NCc5ccc(Cl)cc5Cl)c4c3)cc2)CC1 [Compound 12c] only.
Completion: -2

Prompt: Answer with the recorded inhibition at 10 µM of CN1CCN(Cc2ccc(-c3cnc4[nH]nc(NCCc5ccc(F)cc5)c4c3)cc2)CC1 [Compound 12e] only.
Completion: -5

Prompt: Answer with the recorded inhibition at 10 µM of NS(=O)(=O)c1ccc(-c2cnc3[nH]nc(-c4ccc(N5CCOCC5)cc4)c3c2)cc1 [Compound 15m] only.
Completion: -11

Prompt: Answer with the recorded inhibition at 10 µM of NS(=O)(=O)c1ccc(-c2cnc3[nH]nc(-c4cnn(C5CCOCC5)c4)c3c2)cc1 [Compound 15l] only.
Completion: 21.9

Prompt: Answer with the recorded inhibition at 10 µM of CN1CCN(Cc2ccc(-c3cnc4[nH]nc(-c5ccc6[nH]ccc6c5)c4c3)cc2)CC1 [Compound 15a] only.
Completion: 83

Prompt: Answer with the recorded inhibition at 10 µM of CN1CCN(Cc2ccc(-c3cnc4[nH]nc(NCCCn5ccnc5)c4c3)cc2)CC1 [Compound 12i] only.
Completion: 7.1

Prompt: Answer with the recorded inhibition at 10 µM of Cc1nc2cc(-c3n[nH]c4ncc(-c5ccc(S(N)(=O)=O)cc5)cc34)cc(F)c2o1 [Compound 15r] only.
Completion: 56.8

Prompt: Answer with the recorded inhibition at 10 µM of CN1CCN(Cc2ccc(-c3cnc4[nH]nc(-c5cccc(N)c5)c4c3)cc2)CC1 [Compound 15b] only.
Completion: 47.9

Prompt: Answer with the recorded inhibition at 10 µM of COc1ccc(CCNc2n[nH]c3ncc(-c4ccc(CN5CCN(C)CC5)cc4)cc23)cc1 [Compound 12f] only.
Completion: -0.5

Prompt: Answer with the recorded inhibition at 10 µM of NS(=O)(=O)c1ccc(-c2cnc3[nH]nc(-c4cnn(CCO)c4)c3c2)cc1 [Compound 15o] only.
Completion: 23.3

Prompt: Answer with the recorded inhibition at 10 µM of Cc1nc2c(F)cc(-c3n[nH]c4ncc(-c5ccc(S(N)(=O)=O)cc5)cc34)cc2o1 [Compound 15p] only.
Completion: 41.1

Prompt: Answer with the recorded inhibition at 10 µM of CN1CCN(Cc2ccc(-c3cnc4[nH]cc(-c5ccc6[nH]ccc6c5)c4c3)cc2)CC1 [URMC-099, reference compound] only.
Completion: 75.4

Prompt: Answer with the recorded inhibition at 10 µM of CN1CCN(Cc2ccc(-c3cnc4[nH]nc(NCc5ccccc5)c4c3)cc2)CC1 [Compound 12a] only.
Completion: -8

Prompt: Answer with the recorded inhibition at 10 µM of NS(=O)(=O)c1ccc(-c2cnc3[nH]nc(-c4cc(F)c5cn[nH]c5c4)c3c2)cc1 [Compound 15q] only.
Completion: 83.9
